molecular target: Adenosine A2 receptor (Rattus norvegicus, UniProt P29276+P30543); test: Binding of [3H]NECA to A2 adenosine receptor (post-Xanthine); assay type: protein assay
EXPERIMENTAL ENDPOINT: Kd (nM)
Answers are plain numbers, in nM.

Look over these answered cases.
{"SMILES STR": "CCCn1c(=O)c2nc(CNC(=O)c3cccc(S(=O)(=O)F)c3)[nH]c2n(CCC)c1=O", "SCALE UNIT": "nM", "Kd": 40}
{"SMILES STR": "CCCn1c(=O)c2nc(CCCNC(=O)c3ccc(S(=O)(=O)F)cc3)[nH]c2n(CCC)c1=O", "SCALE UNIT": "nM", "Kd": 43}

Return reported Kd values for all items listed beneath this line.
1. CCCn1c(=O)c2nc(CNC(=O)c3ccc(S(=O)(=O)F)cc3)[nH]c2n(CCC)c1=O
2. CCCn1c(=O)c2nc(C3CCCC3)[nH]c2n(CCCOC(=O)c2ccc(S(=O)(=O)F)cc2)c1=O

[reply]
1: 51; 2: 53
